The origin of these recorded values is patent US20190062438A1.

target_or_test_system: T1, soluble Homo sapiens CD131 comprising a C-terminal 6xHis tag (human, UniProt P32927 17-438)
T1 construct: truncated after Ser438, C-terminal 6xHis; also called shCD131; shβc
T1 sequence: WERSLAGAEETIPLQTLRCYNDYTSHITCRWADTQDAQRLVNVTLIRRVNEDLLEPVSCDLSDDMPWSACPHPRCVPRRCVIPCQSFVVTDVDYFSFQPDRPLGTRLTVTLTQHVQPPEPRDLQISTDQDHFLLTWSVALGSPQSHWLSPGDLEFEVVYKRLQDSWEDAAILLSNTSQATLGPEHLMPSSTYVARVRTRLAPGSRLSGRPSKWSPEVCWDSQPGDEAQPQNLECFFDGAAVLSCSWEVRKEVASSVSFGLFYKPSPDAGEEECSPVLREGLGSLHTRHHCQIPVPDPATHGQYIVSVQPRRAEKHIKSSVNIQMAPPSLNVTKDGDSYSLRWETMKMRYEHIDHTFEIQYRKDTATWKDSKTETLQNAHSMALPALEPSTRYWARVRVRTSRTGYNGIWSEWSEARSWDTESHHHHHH
measurement_notes: SPR, Fab over captured shCD131
endpoint_name: pKd
In simple prose, pKd is minus the logarithm base ten of a concentration in moles per litre.

May I ask what pKd has been recorded for 9A2-VR39.22 Fab (Fab, V domains shown, recombinant Fab) VH: EVQLLESGGGLVQPGGSLRLSCAASGFTFQWYHVIWVRQAPGKGLEWVSSINGRGRVTYYADSVKGRFTISRDNSKNTLYLQMNSLRAEDTAVYYCARFYDSFFDIWGQGTMVTVSS VL: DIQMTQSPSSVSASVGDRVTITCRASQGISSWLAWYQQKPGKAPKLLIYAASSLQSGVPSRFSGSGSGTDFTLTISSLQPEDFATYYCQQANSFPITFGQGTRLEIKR ?
9.85

May I ask what pKd has been recorded for 9A2-VR39.02 Fab (Fab, V domains shown, recombinant Fab) VH: EVQLLESGGGLVQPGGSLRLSCAASGFTFYWYHMIWVRQAPGKGLEWVSSINGRGRVTYYADSVKGRFTISRDNSKNTLYLQMNSLRAEDTAVYYCARFYDSFFDIWGQGTMVTVSS VL: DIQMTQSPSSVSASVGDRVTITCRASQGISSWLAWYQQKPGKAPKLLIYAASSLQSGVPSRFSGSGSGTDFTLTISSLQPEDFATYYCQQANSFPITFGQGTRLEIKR ?
10.06

May I ask what pKd has been recorded for 9A2-VR24.124 Fab (Fab, V domains shown, recombinant Fab) VH: EVQLLESGGGLVQPGGSLRLSCAASGFTFPWYRVHWVRQAPGKGLEWVSSIRSSGGFTYYTPSVRGRFTISRDNSKNTLYLQMNSLRAEDTAVYYCARFYDSFFDIWGQGTMVTVSS VL: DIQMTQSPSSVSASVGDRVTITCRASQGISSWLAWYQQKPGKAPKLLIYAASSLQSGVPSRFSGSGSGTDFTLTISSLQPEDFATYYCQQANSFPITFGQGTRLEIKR ?
9.60

May I ask what pKd has been recorded for 9A2-VR24.55 Fab (Fab, V domains shown, recombinant Fab) VH: EVQLLESGGGLVQPGGSLRLSCAASGFTFPWYRVHWVRQAPGKGLEWVSSIRSSGGFTYYNPSVKNRFTISRDNSKNTLYLQMNSLRAEDTAVYYCARFYDSFFDIWGQGTMVTVSS VL: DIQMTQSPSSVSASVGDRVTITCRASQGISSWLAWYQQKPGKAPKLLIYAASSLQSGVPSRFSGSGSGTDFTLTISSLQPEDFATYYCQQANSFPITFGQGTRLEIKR ?
9.43

May I ask what pKd has been recorded for 9A2-VR24.84 Fab (Fab, V domains shown, recombinant Fab) VH: EVQLLESGGGLVQPGGSLRLSCAASGFTFPWYRVHWVRQAPGKGLEWVSSIHTHRPWTYYADSVKGRFTISRDNSKNTLYLQMNSLRAEDTAVYYCARFYDSFFDIWGQGTMVTVSS VL: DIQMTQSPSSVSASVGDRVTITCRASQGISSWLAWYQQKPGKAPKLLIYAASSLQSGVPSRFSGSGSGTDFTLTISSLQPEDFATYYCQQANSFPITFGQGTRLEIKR ?
9.98
